// data source = patent US20250115577A1

- Test system: MOLT-4 cells
- run description: Cell viability assay (CellTiter-Glo), MOLT-4
- Assay type: cell-based
- assay setup: 3 days of incubation
readout label: CC50

COc1cccc(CN(C(=O)c2cc(-c3cc(Cl)c(F)cc3C(=O)N3Cc4ccccc4C[C@H]3CN3CCOCC3)n(C)c2C)c2ccc(C#N)cc2)c1C :: > 10 µM

----------
- experimental system: BCL-2 (Homo sapiens (Human))
- Sequence (P10415 whole entry): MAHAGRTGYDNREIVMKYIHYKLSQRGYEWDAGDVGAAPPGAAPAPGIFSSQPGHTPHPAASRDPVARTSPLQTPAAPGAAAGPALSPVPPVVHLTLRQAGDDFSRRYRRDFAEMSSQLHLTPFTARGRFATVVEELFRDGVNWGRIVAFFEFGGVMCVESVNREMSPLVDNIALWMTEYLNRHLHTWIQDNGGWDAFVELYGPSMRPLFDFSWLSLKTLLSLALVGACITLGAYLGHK
IC50 values for the molecules below.
readout label: IC50

COc1cccc(CN(C(=O)c2cc(-c3cc([N+](=O)[O-])ccc3C(=O)N3Cc4ccccc4C[C@H]3CN3CCOCC3)n(C)c2C)c2ccc3cn[nH]c3c2)c1C :: > 50 nM
COc1cccc(CN(C(=O)c2cc(-c3cc(Cl)ccc3C(=O)N3Cc4ccccc4C[C@H]3CN3CCOCC3)n(C)c2C)c2ccc(C#N)cc2)c1C :: > 50 nM
COc1cccc(CN(C(=O)c2cc(-c3cc(F)c(OC(F)F)cc3C(=O)N3Cc4ccccc4C[C@H]3CN3CCOCC3)n(C)c2C)c2ccc(Cl)cc2)c1C :: > 50 nM
COc1cccc(CN(C(=O)c2cc(-c3cc(NC(C)=O)ccc3C(=O)N3Cc4ccccc4C[C@H]3CN3CCOCC3)n(C)c2C)c2ccc(O)cc2)c1C :: 5 to 10 nM
COc1cc(-c2cc(C(=O)N(Cc3cccc(OC)c3C)c3ccc(O)cc3)c(C)n2C)c(C(=O)N2Cc3ccccc3C[C@H]2CN2CCOCC2)cc1C#N :: > 50 nM
COc1cccc(CN(C(=O)c2cc(-c3cc(Cl)c(F)cc3C(=O)N3Cc4ccccc4C[C@H]3CN3CCOCC3)n(C)c2C)c2ccc(O)cc2)c1C :: 10 to 50 nM
Cc1c(C(=O)N(Cc2ccccc2C#N)c2ccc3cn[nH]c3c2)cc(-c2cc([N+](=O)[O-])ccc2C(=O)N2Cc3ccccc3C[C@H]2CN2CCOCC2)n1C :: > 50 nM
COc1cc(-c2cc(C(=O)N(Cc3ccccc3C#N)c3ccc(Cl)cc3)c(C)n2C)c(C(=O)N2Cc3ccccc3C[C@H]2CN2CCOCC2)cc1C#N :: > 50 nM
